Each entry below carries its recorded EC50.
- ASSAY_TARGET: T1, recombinant human soluble gpNMB (recombinant human gpNMB-FLAG-His) (human, UniProt Q14956 23-498)
- T1 sequence: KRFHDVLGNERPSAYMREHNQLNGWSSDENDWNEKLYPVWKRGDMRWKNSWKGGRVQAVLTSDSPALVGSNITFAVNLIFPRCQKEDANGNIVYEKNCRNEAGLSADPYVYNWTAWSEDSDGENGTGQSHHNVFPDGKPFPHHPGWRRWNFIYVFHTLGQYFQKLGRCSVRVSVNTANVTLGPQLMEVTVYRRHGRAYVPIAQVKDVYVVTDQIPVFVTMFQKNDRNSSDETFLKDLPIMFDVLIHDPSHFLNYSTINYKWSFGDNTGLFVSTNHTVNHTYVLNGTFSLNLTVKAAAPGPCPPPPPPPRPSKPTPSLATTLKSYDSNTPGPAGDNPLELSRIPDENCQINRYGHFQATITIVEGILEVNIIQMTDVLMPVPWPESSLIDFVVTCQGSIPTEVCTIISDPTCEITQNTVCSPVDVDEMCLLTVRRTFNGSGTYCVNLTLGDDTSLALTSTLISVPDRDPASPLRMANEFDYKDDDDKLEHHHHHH
- TEST_SUMMARY: antigen ELISA
Answer in nM, number only, no unit symbol.

Name the reported EC50 value associated with the binder hGPN06-1_H1L1 VL S28A (antibody, V domains shown) VH: QVQLVQSGAEVKKPGASVKVSCKASGYTFTDNWMGWVKQRPGQGLEWIGAIDPSDSFTNYNQNFKGRVTMTVDTSISTAYMELSRLRSDDSAVYFCTRSGYYGSPKLGGDYWGQGTLVTVSS VL: EIVLTQSPSSLSASVGDRVTITCSASSAISYMHWYQQKSGTAPKLLIYSTSNLASGVPSRFSGSGSGTDFTFTISSLQPEDAATYYCHQWNSYPCTFGGGTKLEIK
1.27

Check hGPN06-1_H1L1 VL S92A (antibody, V domains shown) VH: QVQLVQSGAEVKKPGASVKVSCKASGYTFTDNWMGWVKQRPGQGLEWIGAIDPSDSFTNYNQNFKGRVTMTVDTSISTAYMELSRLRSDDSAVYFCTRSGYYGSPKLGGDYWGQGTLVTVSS VL: EIVLTQSPSSLSASVGDRVTITCSASSSISYMHWYQQKSGTAPKLLIYSTSNLASGVPSRFSGSGSGTDFTFTISSLQPEDAATYYCHQWNAYPCTFGGGTKLEIK too.
1.86

Field entry: hGPN06-1_H1L1 VL N91A (antibody, V domains shown) VH: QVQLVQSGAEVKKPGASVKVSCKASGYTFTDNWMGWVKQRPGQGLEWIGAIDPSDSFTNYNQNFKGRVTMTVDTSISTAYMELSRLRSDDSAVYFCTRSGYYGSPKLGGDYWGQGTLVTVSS VL: EIVLTQSPSSLSASVGDRVTITCSASSSISYMHWYQQKSGTAPKLLIYSTSNLASGVPSRFSGSGSGTDFTFTISSLQPEDAATYYCHQWASYPCTFGGGTKLEIK
1.84

Now this one: hGPN06-1_H1L1 VL S24A (antibody, V domains shown) VH: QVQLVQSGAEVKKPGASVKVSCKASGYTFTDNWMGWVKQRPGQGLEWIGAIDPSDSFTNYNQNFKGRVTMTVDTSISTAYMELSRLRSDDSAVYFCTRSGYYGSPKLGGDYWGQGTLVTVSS VL: EIVLTQSPSSLSASVGDRVTITCAASSSISYMHWYQQKSGTAPKLLIYSTSNLASGVPSRFSGSGSGTDFTFTISSLQPEDAATYYCHQWNSYPCTFGGGTKLEIK
1.99

Next up: hGPN06-1_H1L1 VL S51A (antibody, V domains shown) VH: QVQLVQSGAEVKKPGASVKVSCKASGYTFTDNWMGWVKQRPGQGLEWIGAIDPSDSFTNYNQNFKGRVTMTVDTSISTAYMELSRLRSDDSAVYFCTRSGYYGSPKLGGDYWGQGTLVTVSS VL: EIVLTQSPSSLSASVGDRVTITCSASSSISYMHWYQQKSGTAPKLLIYSTANLASGVPSRFSGSGSGTDFTFTISSLQPEDAATYYCHQWNSYPCTFGGGTKLEIK
0.927

Data credit: patent EP4772193A1
